Measured EC50 by item
# systemUnderTest: MRGPRX2 (Homo sapiens, UniProt Q96LB1)
# Sequence (Q96LB1 1-330): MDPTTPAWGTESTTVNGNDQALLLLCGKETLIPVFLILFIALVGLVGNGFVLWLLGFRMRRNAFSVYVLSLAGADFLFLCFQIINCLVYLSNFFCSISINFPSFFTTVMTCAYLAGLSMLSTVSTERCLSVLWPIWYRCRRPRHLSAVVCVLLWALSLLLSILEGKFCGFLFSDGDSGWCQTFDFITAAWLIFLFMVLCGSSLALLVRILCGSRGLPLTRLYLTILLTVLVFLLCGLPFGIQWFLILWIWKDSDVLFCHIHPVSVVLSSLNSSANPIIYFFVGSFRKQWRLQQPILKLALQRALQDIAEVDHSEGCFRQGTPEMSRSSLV
# methodSummary: Ca2+ mobilization assay (FLIPR TETRA) in HEK293-MRGPRX2/Gα15 cells
# Format: cell-based
# Parameters: expressed in transfected cells
# conditionDetails: agonist mode; highest concentration tested 30 μM; read-out: Activation of Ca2+ Mobilization EC50
# Protocol: A Ca^2+ mobilization assay was used to screen for small-molecule compounds with agonist or antagonist activity against human MRGPRX2 using HEK293-MRGPRX2/Gα15 cells. […] Figure 1 Identification of two structurally distinct MRGPRX2 antagonists: Compound (A) and Compound (B). […] Dose-dependent inhibition (A) of Cortistatin 14–mediated MRGPRX2 activation was measured, and antagonist potencies (B) are presented as mean ± SEM of 66 or 22 independent experiments for Compound A and Compound B, respectively.

# EC50 (molecule: CC1(C)C(C(=O)Nc2ccccn2)C1(C)C ) is > 30 µM

# EC50 (molecule: C[C@@H](C(=O)Nc1cnc(Oc2ccc(F)cc2F)cn1)N1CCC(F)(F)[C@@H](c2cc[n+]([O-])cc2)C1 ) is > 30 µM

* * *

Measured IC50 by item
# systemUnderTest: M2 receptor (CHRM2) (Homo sapiens, UniProt P08172)
# Sequence (P08172 whole entry): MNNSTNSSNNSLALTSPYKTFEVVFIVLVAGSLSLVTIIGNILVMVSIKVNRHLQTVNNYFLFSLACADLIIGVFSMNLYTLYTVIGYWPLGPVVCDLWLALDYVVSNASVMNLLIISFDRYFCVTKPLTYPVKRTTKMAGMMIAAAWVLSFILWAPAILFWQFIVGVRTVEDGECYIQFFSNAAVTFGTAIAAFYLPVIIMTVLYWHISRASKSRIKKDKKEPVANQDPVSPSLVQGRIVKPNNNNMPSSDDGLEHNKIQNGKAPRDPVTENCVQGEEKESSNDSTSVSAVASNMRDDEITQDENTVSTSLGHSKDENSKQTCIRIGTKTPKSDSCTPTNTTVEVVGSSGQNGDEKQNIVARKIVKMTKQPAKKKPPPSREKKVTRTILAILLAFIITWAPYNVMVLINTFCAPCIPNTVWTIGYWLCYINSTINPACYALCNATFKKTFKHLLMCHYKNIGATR
# methodSummary: GPCR selectivity cellular assay
# conditionDetails: Antagonism; read-out: Antagonist Activity (IC50)
# Description: tagonists, with little activity detected on other GPCRs. Antagonist and/or agonist activities of the two compounds were determined in cellular assays for 20 human G-protein coupled receptors (GPCR) beside MRGPRX2. Recombinant over-expression systems in mammalian cells were used for all assays listed in this table. […] reported as ‘>’ the highest compound concentration allowed in that assay. GPCR Target Name Gene symbol Mode of Activity Compound-A Compound-B […]

1) C[C@@H](C(=O)Nc1cnc(Oc2ccc(F)cc2F)cn1)N1CCC(F)(F)[C@@H](c2cc[n+]([O-])cc2)C1 ... > 50 µM

Please find the next compound below.
# IC50 (compound: CC1(C)C(C(=O)Nc2ccccn2)C1(C)C ) is > 50 µM

* * *

Measured pIC50 by item
# systemUnderTest: NK1 receptor (TACR1) (Homo sapiens, UniProt P25103)
# Sequence (P25103 whole entry): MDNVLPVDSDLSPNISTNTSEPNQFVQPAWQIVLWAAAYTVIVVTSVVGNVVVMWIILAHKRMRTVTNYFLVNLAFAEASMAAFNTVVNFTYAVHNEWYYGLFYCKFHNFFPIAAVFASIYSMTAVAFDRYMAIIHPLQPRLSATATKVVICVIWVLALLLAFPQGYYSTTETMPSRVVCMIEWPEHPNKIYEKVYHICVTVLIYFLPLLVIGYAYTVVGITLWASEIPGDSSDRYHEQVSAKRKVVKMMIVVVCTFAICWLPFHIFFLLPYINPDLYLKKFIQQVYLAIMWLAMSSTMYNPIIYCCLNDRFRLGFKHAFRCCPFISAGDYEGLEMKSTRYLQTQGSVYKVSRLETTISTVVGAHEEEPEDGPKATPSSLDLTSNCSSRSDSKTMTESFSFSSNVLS
# methodSummary: GPCR selectivity cellular assay
# conditionDetails: Antagonism; read-out: Antagonist Activity (IC50)
pIC50: −log10 of the molar value.

1. CC1(C)C(C(=O)Nc2ccccn2)C1(C)C [Compound A] ... < 4.60

Please find the next compound below.
# pIC50 (compound: C[C@@H](C(=O)Nc1cnc(Oc2ccc(F)cc2F)cn1)N1CCC(F)(F)[C@@H](c2cc[n+]([O-])cc2)C1 [Compound B] ) is < 4.60
